Source listed as ChEMBL document CHEMBL4665838.

target: NACHT, LRR and PYD domains-containing protein 3 (Homo sapiens, UniProt Q96P20); test: Inhibition of NLRP3 in human THP1 cells assessed as inhibition of IL-1beta production
Sequence (Q96P20 whole entry, the tested form may be a part): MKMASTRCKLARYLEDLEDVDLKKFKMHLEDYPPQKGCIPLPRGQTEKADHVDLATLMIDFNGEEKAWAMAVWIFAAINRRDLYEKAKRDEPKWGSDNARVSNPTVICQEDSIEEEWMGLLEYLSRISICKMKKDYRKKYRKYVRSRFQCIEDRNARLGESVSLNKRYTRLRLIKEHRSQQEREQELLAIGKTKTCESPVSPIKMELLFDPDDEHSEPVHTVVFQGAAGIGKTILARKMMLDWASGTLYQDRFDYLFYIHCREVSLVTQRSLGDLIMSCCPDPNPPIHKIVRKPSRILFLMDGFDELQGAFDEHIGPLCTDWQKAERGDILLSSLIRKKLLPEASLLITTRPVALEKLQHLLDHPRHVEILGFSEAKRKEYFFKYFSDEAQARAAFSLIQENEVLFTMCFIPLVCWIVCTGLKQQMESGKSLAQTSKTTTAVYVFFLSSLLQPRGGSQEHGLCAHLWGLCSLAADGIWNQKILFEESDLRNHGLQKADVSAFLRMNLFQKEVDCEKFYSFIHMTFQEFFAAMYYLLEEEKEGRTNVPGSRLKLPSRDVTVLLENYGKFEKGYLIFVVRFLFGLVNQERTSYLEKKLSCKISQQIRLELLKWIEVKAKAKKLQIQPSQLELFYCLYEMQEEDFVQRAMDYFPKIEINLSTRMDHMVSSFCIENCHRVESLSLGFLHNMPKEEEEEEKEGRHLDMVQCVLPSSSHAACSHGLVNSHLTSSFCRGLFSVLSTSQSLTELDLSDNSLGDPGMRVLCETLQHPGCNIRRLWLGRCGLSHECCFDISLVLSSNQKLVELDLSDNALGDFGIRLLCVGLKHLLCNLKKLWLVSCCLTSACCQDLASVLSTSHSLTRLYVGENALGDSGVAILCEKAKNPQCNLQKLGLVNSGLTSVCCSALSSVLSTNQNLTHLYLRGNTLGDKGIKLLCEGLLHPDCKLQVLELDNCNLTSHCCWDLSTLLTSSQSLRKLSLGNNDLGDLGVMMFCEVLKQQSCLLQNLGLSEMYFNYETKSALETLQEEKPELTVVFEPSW
Would you mind telling me the reported pIC50 of each entry?
Keep it numeric: pIC50 is minus log10 of the concentration in mol/L.

Request: Recorded pIC50 for Cc1cnc(/C=C/S(=O)(=O)NC(=O)Nc2c3c(cc4c2CCC4)CCC3)s1 , please?
Result: 5.97

Request: // query: O=C(Nc1c2c(cc3c1CCC3)CCC2)NS(=O)(=O)/C=C/c1ccccn1
Result: 6.00

----------
experiment: Cmax in C57BL/6 mouse at 3 mg/kg, po; format: ADME, organism-based; set-up: route oral, dose 3 mg/kg; conditions: in vivo
READOUT_KIND: Cmax

Request: Recorded Cmax for CC(C)(O)c1coc(S(=O)(=O)NC(=O)Nc2c3c(cc4c2CCC4)CCC3)c1 , please?
Result: 11700 ng/mL

Request: // query: O=C(Nc1c2c(cc3c1CCC3)CCC2)NS(=O)(=O)/C=C/c1nccs1
Result: 8490 ng/mL

----------
Would you mind telling me the reported clearance of each entry?
test: Clearance in C57BL/6 mouse at 1 mg/kg, iv; format: ADME, organism-based; conditions: in vivo
Show the value, then the unit it is measured in.

Request: Recorded clearance for O=C(Nc1c2c(cc3c1CCC3)CCC2)NS(=O)(=O)/C=C/c1nccs1 , please?
Result: 1.01 mL/min/kg

Request: // query: CC(C)(O)c1coc(S(=O)(=O)NC(=O)Nc2c3c(cc4c2CCC4)CCC3)c1
Result: 0.8 mL/min/kg

----------
test: AUC (0 to t) in C57BL/6 mouse at 3 mg/kg, po; assay type: ADME, organism-based; parameters: dose 3 mg/kg; details: in vivo
READOUT_KIND: AUC(0-t)
Show the value, then the unit it is measured in.

Request: Recorded AUC(0-t) for CC(C)(O)c1coc(S(=O)(=O)NC(=O)Nc2c3c(cc4c2CCC4)CCC3)c1 , please?
Result: 46900 ng·h/mL

Request: // query: O=C(Nc1c2c(cc3c1CCC3)CCC2)NS(=O)(=O)/C=C/c1nccs1
Result: 48900 ng·h/mL

----------
Would you mind telling me the reported pIC50 of each entry?
molecular target: NACHT, LRR and PYD domains-containing protein 3 (Homo sapiens); experiment: Inhibition of NLRP3 in human THP1 cells assessed as inhibition of IL-1beta production; type: cell-based, THP-1
pIC50: −log10 of the molar value.

Request: Recorded pIC50 for O=C(Nc1c2c(cc3c1CCC3)CCC2)NS(=O)(=O)/C=C/c1nc2ccccc2s1 , please?
Result: < 6.00

Request: // query: CC(C)c1cccc(C(C)C)c1NC(=O)NS(=O)(=O)/C=C/c1nccs1
Result: < 6.00

Request: // query: Cc1cc(C)c(C)c(NC(=O)NS(=O)(=O)/C=C/c2nccs2)c1C
Result: < 6.00

Request: // query: O=C(Nc1cc(C(F)(F)F)ccc1C(F)(F)F)NS(=O)(=O)/C=C/c1nccs1
Result: < 6.00

----------
experiment: Initial plasma concentration in C57BL/6 mouse at 1 mg/kg, iv; assay type: ADME, organism-based
READOUT_KIND: C0 (ng/mL)
# unit: ng/mL | format: bare number

Request: Recorded C0 for O=C(Nc1c2c(cc3c1CCC3)CCC2)NS(=O)(=O)/C=C/c1nccs1 , please?
Result: 6270

Request: // query: CC(C)(O)c1coc(S(=O)(=O)NC(=O)Nc2c3c(cc4c2CCC4)CCC3)c1
Result: 22200

----------
molecular target: NACHT, LRR and PYD domains-containing protein 3 (Homo sapiens, UniProt Q96P20); experiment: Inhibition of NLRP3 in human THP1 cells assessed as inhibition of IL-1beta production
READOUT_KIND: IC50

Request: Recorded IC50 for COc1cccc(OC)c1NC(=O)NS(=O)(=O)/C=C/c1nccs1 , please?
Result: > 1 µM

Request: // query: O=C(Nc1ccccc1C(F)(F)F)NS(=O)(=O)/C=C/c1nccs1
Result: > 1 µM

Request: // query: O=C(Nc1c(F)cccc1C(F)(F)F)NS(=O)(=O)/C=C/c1nccs1
Result: > 1 µM
